- experimental.details: Inhibition of Rickettsia prowazekii methionine aminopeptidase 1 using methionine-aminomethylcoumarin as substrate preincubated for 1 hrs followed by substrate addition and measured after 30 mins by fluorescence based plate reader analysis
Each record's class is read off its IC50 using these ranges: low: < 2 µM; middle: ≥ 2 µM and < 5 µM; high: ≥ 5 µM

Lookup: Field: class (IC50) — entry: `O=[N+]([O-])/C(Br)=C/c1ccc(Br)o1`
Found: middle

Lookup: Follow-up entry: `C[C@@H](c1nc(-c2ccc(C#N)cc2)cs1)[C@](O)(Cn1cncn1)c1ccc(F)cc1F`
Found: high

Lookup: Follow-up entry: `CONC(=N)c1ccc(-c2ccc(-c3ccc(C(=N)NOC)cc3)o2)cc1`
Found: middle

Lookup: Follow-up entry: `O=C(CP(=O)(O)O)NCCc1cccc(Oc2ccccc2)c1`
Found: high

Lookup: Follow-up entry: `O=C(O)c1ccc(-c2ccccc2Cl)o1`
Found: middle

Lookup: Follow-up entry: `O=C(Nc1nnc(-c2ccc(Cl)cc2)o1)c1nc2ccccc2s1`
Found: high

Others:
Lookup: Field: class (IC50) — entry: `O=C(O)c1ccc(-n2nc(-c3ccccc3O)nc2-c2ccccc2O)cc1`
Found: middle

Lookup: Follow-up entry: `CN(C)CCCNC(=O)c1ccc(-c2cc(O)c3ncccc3c2)cc1`
Found: low

Lookup: Follow-up entry: `CCCCCCC1c2ccc(O)cc2Oc2cc(O)ccc21`
Found: high

Lookup: Follow-up entry: `Cc1cc(-c2ccccc2)c(C(=O)C(=O)Nc2ccc(N3CCN(c4ncc(F)cn4)CC3)cc2)n1C`
Found: middle

Lookup: Follow-up entry: `Fc1ccc(-n2cc(Cn3c(-c4cccc(F)c4)nc4ccccc43)nn2)cc1`
Found: middle

Lookup: Follow-up entry: `Cc1ccc(Oc2ccccc2-c2csc(N=C3NCCCN3)n2)c(C)c1`
Found: high

====

Overview of reported pIC50 across a group of compounds:
- experimental.details: Inhibition of Rickettsia prowazekii methionine aminopeptidase 1 using methionine-aminomethylcoumarin as substrate preincubated for 1 hrs followed by substrate addition and measured after 30 mins by fluorescence based plate reader analysis
pIC50 here is simply -log10 of the concentration when that concentration is written in mol/L.

Reference set, count: 3
Lookup: Form field: reported pIC50 of `COc1cc(Cc2cnc(N)nc2N)cc(OC)c1OC`
Found: 5.29

Lookup: Follow-up entry: `O=c1cc(Nc2ccc3ccccc3c2)[nH]c(=O)[nH]1`
Found: 5.74

Lookup: Follow-up entry: Oc1cccc(C(Nc2nccs2)c2ccc3cccnc3c2O)c1 (stereo not drawn)
Found: 5.85

Others:
Lookup: Form field: reported pIC50 of O=C1c2cccc3cccc(c23)C(=O)N1CC1CO1 (stereo not drawn)
Found: 5.32

Lookup: Follow-up entry: `CN(O)C(=O)c1cc2c(CN3CCC[C@H]3C(N)=O)cn(Cc3ccc(F)cc3)c2cn1`
Found: 5.38

====

- experimental.details: Inhibition of Rickettsia prowazekii methionine aminopeptidase 1 using methionine-aminomethylcoumarin as substrate preincubated for 1 hrs followed by substrate addition and measured after 30 mins by fluorescence based plate reader analysis
Overview of reported pIC50 across a group of molecules:
pIC50 here is simply -log10 of the concentration when that concentration is written in mol/L.

Reference set, count: 2
Lookup: Form field: reported pIC50 of Nc1nc(=O)[nH]cc1F [FLUCYTOSINE]
Found: 5.16

Lookup: Follow-up entry: `O=C(NCc1ccc(F)cc1)c1c(O)c2ncccc2[nH]c1=O`
Found: 5.72

# ---- query molecule ----
Lookup: Form field: reported pIC50 of `COc1ccc(C)cc1NC(=O)c1ccc(S(=O)(=O)N2CCCCC2)cc1`
Found: 5.62
